- EXPERIMENT NOTES: Rodent brain penetration study
- EXPERIMENTAL CONTEXT: male, Wistar, rat, in vivo, po, 10 mg/kg
Where a name gives a salt, the structure may show the parent alone.
TEST READOUT: Kp

P: CC(C)n1nc(-c2nnc(C3CCN(C4CCOCC4)CC3)o2)c2ccccc21 [Example 48, oxalate salt]
Q: CC(C)n1nc(-c2nnc(C3CCN(C4CCC4)CC3)o2)c2ccccc21 [Example 37]
Q: Endpoint returns whichever of P and Q has the numerically higher Kp. Pick one and reply with its label.
Result: Q
(Q: 5.68, P: 2.55)

----------
- EXPERIMENT NOTES: Rodent pharmacokinetic study
- Type: in vivo, Male Wister rats
- EXPERIMENTAL CONTEXT: plasma; Wistar/Male rat, 5 mg/kg, intravenous (bolus)
TEST READOUT: Cmax (ng/mL)

# LINE NOTATION, TEST READOUT, OBSERVED VALUE
measured = [
    ("Nc1c(Cl)cc(-c2nnc(CCCN3CCCCC3)o2)c2c1CCCO2.O=C(O)C(O)C(O)C(=O)O", "Cmax", 976),
]

I: CCOC(=O)N1CCC(N2CCC(c3nnc(-c4cc(Cl)c(N)c5c4OCCC5)o3)CC2)CC1
II: CC(C)CCN1CCC(c2nnc(-c3cc(Cl)c(N)c4c3OCCC4)o2)CC1
III: COCCN1CCC(c2nnc(-c3cc(Cl)c(N)c4c3OCCC4)o2)CC1
Q: Arrange items by their Cmax values in increasing order. Answer by listing the labels in the order asked for.
Result: II, III, I
